Where do the numbers come from? From ChEMBL document CHEMBL4118265.

MEASURED_QUANTITY: pIC50
Scale for pIC50: -log10 of concentration given in mol/L; no unit attached.

Item Cc1[nH]nc2c1C(c1ccc(-c3ccccc3)cc1)c1c(nc3c(c1N)CCCC3)O2 (configuration not stated) ; assay system Acetylcholinesterase (Electrophorus electricus, UniProt O42275); pIC50 reported as 7.36

Acetylcholinesterase (Electrophorus electricus, UniProt O42275) data for Cc1[nH]nc2c1C(c1ccc([N+](=O)[O-])cc1)c1c(nc3c(c1N)CCCC3)O2 (configuration not stated) ; its pIC50: 5.24

pIC50 for Acetylcholinesterase (Electrophorus electricus, UniProt O42275) with input Cc1ccc(C2c3c(n[nH]c3C)Oc3nc4c(c(N)c32)CCCC4)c(C)c1 (configuration not stated) equals 6.54

The measured pIC50 that Cc1[nH]nc2c1C(c1c(Cl)cccc1[N+](=O)[O-])c1c(nc3c(c1N)CCCC3)O2 (configuration not stated) showed for Acetylcholinesterase (Electrophorus electricus, UniProt O42275) is 5.75

Let me check: Cc1[nH]nc2c1C(c1ccccc1)c1c(nc3c(c1N)CCCC3)O2 (configuration not stated) , system Acetylcholinesterase (Electrophorus electricus, UniProt O42275), measured pIC50 is 5.91

Test item Cc1[nH]nc2c1C(c1ccc(Br)cc1)c1c(nc3c(c1N)CCCC3)O2 (configuration not stated) ; Acetylcholinesterase (Electrophorus electricus, UniProt O42275); reported pIC50 was 5.74

Measured on Acetylcholinesterase (Electrophorus electricus, UniProt O42275), COc1ccc(C2c3c(n[nH]c3C)Oc3nc4c(c(N)c32)CCCC4)c(OC)c1 (configuration not stated) has a documented pIC50 of 6.59
